Task for the reader: assign each of the following molecules its reported pEC50.
target entity: Free fatty acid receptor 1 (Homo sapiens, UniProt O14842)
Sequence (O14842 whole entry): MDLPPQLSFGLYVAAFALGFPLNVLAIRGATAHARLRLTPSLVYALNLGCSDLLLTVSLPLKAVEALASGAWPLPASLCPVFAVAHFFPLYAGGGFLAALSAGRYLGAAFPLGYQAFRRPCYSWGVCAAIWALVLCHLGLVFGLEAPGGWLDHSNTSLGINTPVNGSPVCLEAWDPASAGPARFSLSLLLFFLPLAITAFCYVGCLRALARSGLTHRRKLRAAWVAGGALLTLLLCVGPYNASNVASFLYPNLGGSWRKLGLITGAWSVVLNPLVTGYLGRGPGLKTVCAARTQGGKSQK
assay details: Agonist activity at N-terminal FLAG tagged human FFAR1 transfected in African green monkey COS-7 cells assessed as accumulation of inositol phosphate incubated for 90 mins by TopCount NXT counter based analysis
Type: cell-based
Numbers only, as −log10 of the molar value.

Parameters: items (list). Returns: pEC50 for each item.
1. COc1cc(OCc2nc(N)nc(Nc3ccc(C)c(Cl)c3)n2)cc(N2CCCC2=O)c1
2. Cc1cc(Nc2nc(N)nc(COc3ccc4c(C)cc(=O)oc4c3)n2)ccc1Cl
3. Cc1cc(OCc2nc(N)nc(NCCc3ccccc3OC(F)F)n2)cc(N2CCCC2=O)c1
4. Cc1cc(OCc2nc(N)nc(NCCc3ccccc3)n2)cc(N2CCCC2=O)c1
5. COc1ccc(F)cc1CCNc1nc(N)nc(COc2cc(C)cc(N3CCCC3=O)c2)n1
6. Cc1ccc(Nc2nc(N)nc(COc3cc(N4CCCC4=O)ccc3C)n2)cc1Cl

Result:
[5.74, 6.62, 6.97, 7.60, 6.33, 5.13]

Parameters: items (list). Returns: pEC50 for each item.
1. Cc1cc(OCc2nc(N)nc(NCCc3ccc(Cl)c(Cl)c3)n2)cc(N2CCCC2=O)c1
2. Cc1ccc(Nc2nc(N)nc(COc3ccc4c(C(F)F)cc(=O)oc4c3)n2)cc1

Result:
7.80
5.50

Parameters: items (list). Returns: pEC50 for each item.
1. Cc1cc(OCc2nc(N)nc(NCCc3ccccc3Cl)n2)cc(N2CCCC2=O)c1
2. Cc1cc(=O)oc2cc(OCc3nc(N)nc(Nc4ccc5ccccc5c4)n3)ccc12

Result:
1: 8.22; 2: 6.15
